The origin of these recorded values is patent US8383581B2.

Experiment: Stability of peptides in simulated intestinal fluid (pH 7.5)
Type: in vitro ADME
Details: simulated intestinal fluid, 24 h, 2 μM, pH 7.5
Where a SMILES comes first, the peptide text is derived from it. [ ]: non-standard residue; d: D form. ξ: configuration not given here. ξBip(2'-Et-4'-OMe) = CCc1cc(OC)ccc1-c1ccc(CC(N)C(=O)O)cc1; ξαMeW = CC(N)(Cc1c[nH]c2ccccc12)C(=O)O; hhPhe = N[C@@H](CCCc1ccccc1)C(=O)O; hArg = N=C(N)NCCCC[C@H](N)C(=O)O; ξαMeNle = CCCCC(C)(N)C(=O)O; Nle = CCCC[C@H](N)C(=O)O; Orn = NCCC[C@H](N)C(=O)O; Ac3c = NC1(C(=O)O)CC1; Aib = CC(C)(N)C(=O)O
observed property: % degradation of peptides in 24 h when incubated with simulated intestinal fluid (%)

compound: CCCC[C@H](NC(=O)[C@H](CC(C)C)NC(=O)[C@H](CCC(N)=O)NC(=O)[C@@H](NC(=O)[C@H](CCC(=O)O)NC(=O)C(C)(C)NC(=O)[C@@H](NC(=O)C(C)(C)N)C(C)C)[C@@H](C)CC)C(=O)N[C@@H](Cc1c[nH]cn1)C(=O)N[C@@H](CCC(N)=O)C(=O)N[C@@H](CCCN)C(=O)N[C@@H](C)C(=O)NC(C)(C)C(=O)NC(Cc1ccc(-c2ccc(OC)cc2CC)cc1)C(=O)N[C@@H](CCCc1ccccc1)C(N)=O (some centres unmarked) [Seq. ID. 750] (H-[Aib]V[Aib]EIQL[Nle]HQ[Orn]A[Aib][ξBip(2'-Et-4'-OMe)][hhPhe]-NH2)
recorded measurement: 00
//
compound: CCCCC(C)(NC(=O)[C@H](CC(C)C)NC(=O)[C@H](CCC(N)=O)NC(=O)[C@@H](NC(=O)[C@H](CCC(=O)O)NC(=O)C(C)(C)NC(=O)[C@@H](NC(=O)C1(N)CC1)C(C)C)[C@@H](C)CC)C(=O)N[C@@H](Cc1c[nH]cn1)C(=O)N[C@@H](CCC(N)=O)C(=O)N[C@@H](CCCCNC(=N)N)C(=O)N[C@@H](C)C(=O)N[C@@H](CCCCNC(=N)N)C(=O)NC(C)(Cc1c[nH]c2ccccc12)C(=O)N[C@@H](CCCc1ccccc1)C(N)=O (some centres unmarked) [Seq. ID. 945] (H-[Ac3c]V[Aib]EIQL[ξαMeNle]HQ[hArg]A[hArg][ξαMeW][hhPhe]-NH2)
recorded measurement: 100
